Taken from PubChem BioAssay (NCI).

system: LOX IMVI melanoma; experiment: NCI-60 one-dose screen, 48 h; conditions: 10 µM
The panel holds about 83,000 compounds, 20% with a hit somewhere; the sample as a whole holds those more often. Activity calls are given as the source filed them. Rule for the calls: active = growth percent below 10; inactive = the rest.
Select the correct class. Options are active, inactive and nothing else.

Would you please look over these solved cases?
compound: CC(=O)N[C@H](C(=O)N[C@@H](CCCNC(=N)N)C(=O)N[C@@H](CCCCN)C(=O)N[C@@H](CCCNC(=N)N)C(=O)N[C@]1(C)CCC/C=C\CCC[C@@](C)(C(=O)N[C@@H](CC(C)C)C(=O)N[C@@H](CC(C)C)C(=O)N[C@@H](CCC(N)=O)C(=O)N[C@@H](CCC(=O)O)C(=O)N[C@@H](CCCNC(=N)N)C(=O)N[C@@H](CCC(=O)O)C(=O)N[C@@H](CC(C)C)C(=O)N[C@H](C(=O)N[C@@H](CCC(=O)O)C(N)=O)C(C)C)NC(=O)[C@H](CCCNC(=N)N)NC(=O)[C@H](CC(C)C)NC1=O)C(C)C
class label: inactive

compound: NC1=NC(c2ccc(Cl)cc2)C2=C(N1)/C(=C/c1ccc(Cl)cc1)CCC2 (stereo not drawn)
class label: active

Now for another entry.
QUERY: For C=C(NC(=O)C(=C)NC(=O)c1csc(C2=NC3c4csc(n4)C4NC(=O)c5csc(n5)C(C(C)(O)C(C)O)NC(=O)C5CSC(=N5)C(=CC)NC(=O)C(C(C)O)NC(=O)c5csc(n5)C3(CC2)NC(=O)C(C)NC(=O)C(=C)NC(=O)C(C)NC(=O)C(C(C)CC)NC2C=Cc3c(C(C)O)cc(nc3C2O)C(=O)OC4C)n1)C(N)=O (stereo not drawn) , what call appears in the results of this test?
RESULT: active

----------
test system: SW-620 colon; experiment: NCI-60 one-dose screen, 48 h; conditions: 10 µM
This is part of a sample that, as a whole, favours compounds with a hit. Of some 83,000 tested, about 20% had one in any assay. Active and inactive are the calls of the source. Rule for the calls: active = growth percent below 10; inactive = the rest.
Select the correct class. Options are YES (active), NO (inactive) and nothing else.

Would you please look over these solved cases?
compound: Cc1ccc(NC(=O)N2CCCCC2)cc1[N+](=O)[O-]
tgt: SW-620 colon
class label: NO
//
compound: COc1ccc(C(c2ccc(OCCN(C)C)cc2)c2cc3ccccc3c3ccccc23)cc1 (stereo not given)
tgt: SW-620 colon
class label: YES
//
compound: NC(N)=N/N=C(\N=Nc1ccccc1)c1ccc(Cl)cc1
tgt: SW-620 colon
class label: NO

QUERY: For "CCn1c2ccc(O)cc2c2c(C)c3c[n+](C)ccc3c(C)c21" , what call appears in the results of this test?
RESULT: NO

QUERY: For "COc1ccc([C@H]2[C@H](C(=O)Nc3cccnc3)c3ccccc3C(=O)N2c2ccccc2)cc1" , what call appears in the results of this test?
RESULT: NO

----------
test system: A549/ATCC NSCLC; test: NCI-60 one-dose screen, 48 h; settings: 10 µM
This is part of a sample that, as a whole, favours compounds with a hit. Of some 83,000 tested, about 20% had one in any assay. The source made the active and inactive calls. The calls were made as follows: active = growth percent below 10; inactive = the rest.
Select the correct class. Options are YES (active), NO (inactive) and nothing else.

compound: COc1cc(-c2nn(-c3cccc(NC(=O)CCNc4ccc(N5CCOCC5)cc4)c3)cc2-c2ccncc2)ccc1Cl
class label: NO
//
compound: C=C(NC(=O)C(=C)NC(=O)c1csc(C2=NC3c4csc(n4)C4NC(=O)c5csc(n5)C(C(C)(O)C(C)O)NC(=O)C5CSC(=N5)C(=CC)NC(=O)C(C(C)O)NC(=O)c5csc(n5)C3(CC2)NC(=O)C(C)NC(=O)C(=C)NC(=O)C(C)NC(=O)C(C(C)CC)NC2C=Cc3c(C(C)O)cc(nc3C2O)C(=O)OC4C)n1)C(N)=O (centres undefined)
class label: NO
//
compound: O=C(O)c1ccc(-n2cc(CNc3ccc(Cl)cc3)c(-c3ccccc3)n2)cc1
class label: NO
//
compound: CCOC(=O)c1sc2ncnc(Nc3ccc4c(cnn4C(=O)Nc4ccccc4)c3)c2c1C
class label: NO
//
compound: CC(=O)[C@@]12O[C@](C)(c3ccccc3)O[C@@H]1CC1C3CCC4=CC(=O)CC[C@]4(C)C3CC[C@@]12C (some centres undefined)
class label: NO

QUERY: For CCc1cc(Cl)c(OC)c(C(=O)NCC2CCCN2CC)c1O (centres undefined) , what call appears in the results of this test?
RESULT: NO

QUERY: For "COc1ccccc1-n1c(-c2sc(NC(C)=O)nc2C)n[nH]c1=S" , what call appears in the results of this test?
RESULT: NO

QUERY: For "COc1cc(-c2nn(-c3cccc(NC(=O)NCCNC(=O)c4cccc(C(F)(F)F)c4)c3)cc2-c2ccncc2)ccc1Cl" , what call appears in the results of this test?
RESULT: NO

QUERY: For "CN(C)CCOc1cccc(-c2nc3sccn3c2-c2ccnc(S(C)(=O)=O)n2)c1" , what call appears in the results of this test?
RESULT: NO

QUERY: For "CCOC(=O)c1cc(C(=O)c2cc(OC)cc(OC)c2)n2ncc3ccccc3c12" , what call appears in the results of this test?
RESULT: NO

QUERY: For "O=C(CCCCCCC(=O)Nc1ccccc1)NO" , what call appears in the results of this test?
RESULT: YES

QUERY: For "O=C1c2c(c(=O)[nH]c3ccccc23)CCN1Cc1ccccc1" , what call appears in the results of this test?
RESULT: NO

QUERY: For "CN1C(C(=O)Nc2ccccn2)=C(O)c2sc(Cl)cc2S1(=O)=O" , what call appears in the results of this test?
RESULT: NO

QUERY: For "O=C(CC(CC(=O)c1ccccc1)c1ccccc1O)c1ccccc1" , what call appears in the results of this test?
RESULT: NO

QUERY: For "CCc1c2c(nc3ccc(OC(=O)N4CCC(N5CCCCC5)CC4)cc13)-c1cc3c(c(=O)n1C2)COC(=O)[C@]3(O)CC" , what call appears in the results of this test?
RESULT: NO

QUERY: For "Oc1ccc(-c2[nH]c3ccccc3c2-c2nc3ccccc3o2)cc1" , what call appears in the results of this test?
RESULT: NO

QUERY: For "Nc1cc(-c2ccncc2)c[nH]c1=O" , what call appears in the results of this test?
RESULT: NO

QUERY: For "N#Cc1ccc(C(=O)CSc2nccc(Nc3ccc(C(=O)O)cc3)n2)cc1" , what call appears in the results of this test?
RESULT: NO

----------
system: HOP-92 NSCLC; assay: NCI-60 one-dose screen, 48 h (100 = growth as untreated, 0 = no growth, -100 = all killed); conditions: 10 µM
Compounds without any hit were thinned out: in the full panel of roughly 83,000, 20% have a hit.
Catalogue of growth readings, one per entry.
Write it as a number; the unit % goes unstated.

Sample answers from the record:
compound: COc1cc(/C=C2\CCCC3=C2N=C2SC(C)=CN2C3c2cc(OC)c(OC)c(OC)c2)cc(OC)c1OC (stereo not drawn)
tgt: HOP-92 NSCLC
experimental readout: growth
unit tag: %
readout number: 55.4
--
compound: CC(=O)O[C@@]12CO[C@@H]1C[C@H](O)[C@@]1(C)C(=O)[C@H](O)C3=C(C)[C@@H](OC(=O)[C@H](O)[C@@H](NC(=O)OC(C)(C)C)c4ccccc4)C[C@@](O)([C@@H](OC(=O)c4ccccc4)C12)C3(C)C (stereo partly drawn)
tgt: HOP-92 NSCLC
experimental readout: growth
unit tag: %
readout number: 56.3

Let us move to another entry and its growth.
QUERY: API: value(readout=growth, system=HOP-92 NSCLC) for record "CC(C)C1=C(O)C2=C(C(=O)C1=O)[C@@]1(C)CCCC(C)(C)[C@@H]1CC2"
RESULT: 53.6

----------
Catalogue of growth readings, one per entry.
system: HOP-92 NSCLC; test: NCI-60 one-dose screen, 48 h (100 = growth as untreated, 0 = no growth, -100 = all killed); conditions: 10 µM
Compounds without any hit were thinned out: in the full panel of roughly 83,000, 20% have a hit.
Write it as a number; the unit % goes unstated.

compound: Cc1ccc(C2NC(=S)N3C(c4ccc(C)cc4)NC(=S)N23)cc1 (stereo unspecified)
unit tag: %
growth: -3.05

compound: C#CC(C)(O)[C@@H]1C[C@H](CC(=O)O)C1(C)C (stereo partly specified)
unit tag: %
growth: 114

compound: CCC(=O)OC1CCC2C3CCC(=O)OC3C(C)(CCC(=O)O)CC12C (stereo unspecified)
unit tag: %
growth: -1.1

compound: N#Cc1c(N)nc(-c2cc(F)cc(C(F)(F)F)c2)nc1-c1ccccc1F
unit tag: %
growth: 34.7

compound: Nc1cc(Br)c(-c2nn3c(CCC(=O)c4nc5ccccc5[nH]4)nnc3s2)c(Br)c1
unit tag: %
growth: 72.8

Let us move to another entry and its growth.
QUERY: Returns the measured growth for the input compound. Input: C1CN(CC2CCC(CN3CCOCC3)O2)CCO1 (stereo unspecified)
RESULT: 120
